# Tested on: HL-60(TB) leukemia
# Assay Procedure: NCI tumour cell line growth inhibition, 48 h; in the data active = GI50 below about 0.43 µM; inactive = the rest
Could you please pick one outcome from this set? True for active, False for inactive

Observe how each entry below is paired with its result.
// query Please state the recorded outcome for this compound: `Cc1cc2nc(CS)[nH]c2cc1C`
// result False

// query Please state the recorded outcome for this compound: `CN1CCN(CCOc2ccc(-c3cnc4c(-c5cccc(F)c5F)cnn4c3)cc2)CC1`
// result False

// query Please state the recorded outcome for this compound: `CN(C)c1ccc2nc3ccc(=[N+](C)C)c([N+](=O)[O-])c-3sc2c1`
// result True

Continuing:
// query Please state the recorded outcome for this compound: `O=S(=O)(Nc1cccc(Cl)c1)c1ccc(-c2cnc(C3CC3)o2)cc1`
// result True

// query Please state the recorded outcome for this compound: `O=C1Nc2ccccc2/C1=C/C(=N/c1nnc(-c2ccc(Cl)cc2)s1)c1ccccc1`
// result False

// query Please state the recorded outcome for this compound: `O=C(O)c1ccc2nc(-c3ccc(OCCCCCOc4ccc(-c5nc6ccc(C(=O)O)cc6[nH]5)cc4)cc3)[nH]c2c1`
// result False

// query Please state the recorded outcome for this compound: COc1ccc(C(=O)N2N=C(c3ccc(Br)cc3)CC2c2cn(-c3ccccc3)nc2-c2ccccc2)cc1 (configuration not stated)
// result False

----------
Exercise: for every item that follows, state its recorded TGI.
# System: HL-60(TB) leukemia
# Assay Procedure: NCI tumour cell line growth inhibition, 48 h

# count of solved cases: 2
// query Which TGI reading was recorded for the molecule N/N=C(\CCN1CCCC1)CC(c1ccccc1)c1c(O)c2ccccc2oc1=O (stereo not drawn) ?
// result > 100 µM

// query Which TGI reading was recorded for the molecule `C=C1CC[C@@H]2C(C)(C)[C@H](O)CC[C@@]2(C)[C@@H]1COc1ccc2ccc(=O)oc2c1` ?
// result 57.6 µM

Could I get TGI for every one of these entries?
1. c1ccc(-c2ccc(-c3ccc(C4=NCCN4)cc3)o2)cc1
2. Cc1cc2nc3[nH]c4c(Cl)cc(Cl)cc4c3nc2cc1C
3. COc1cc(S(=O)(=O)Nc2ccc(-c3csc(N4C(=O)C(C)SC4c4cccc(Oc5ccccc5)c4)n3)cc2)ccc1Cl (stereo not drawn)
4. OC[C@H]1C[C@@H]2Cc3ccccc3N2N1

// result
3.74 µM
> 100 µM
67.2 µM
> 100 µM

----------
# Test system: MALME-3M melanoma
# Assay Procedure: NCI tumour cell line growth inhibition, 48 h
Parameter: TGI (µM)
One number for each entry, in µM.

Could I get TGI for every one of these entries?
1. C=C1C(=O)O[C@@H]2C[C@@H]3[C@]4(CC[C@]5(C)[C@@H]([C@H](C)CC/C=C(\C)C=O)CC[C@@]35C)C[C@]4(CCC(=O)OC)[C@H]12
2. CC(C)(O)C1CC[C@]2(C)CC[C@]3(C)[C@H](CC[C@@H]4[C@@]5(C)CC[C@H](O)C(C)(C)[C@@H]5CC[C@]43C)[C@@H]12 (some centres undefined)
3. COc1ccc2c(c1)/C(=C\c1c(-c3ccccc3)nc3n1CCS3)C(=O)N2
4. CCOC(=O)/C=C(\C)Sc1cc(O)c2ccccc2c1O

// result
1. 3.05
2. 57.7
3. 30.7
4. 29.1

----------
Exercise: for every item that follows, state its recorded TGI.
# Test system: UACC-257 melanoma
# Assay Procedure: NCI tumour cell line growth inhibition, 48 h
Give bare numbers, in µM.

// query Entry `COC(=O)c1ccc2[nH]c(O)c(C(=Nc3ccc(N(C)C(=O)CN4CCN(C)CC4)cc3)c3cccc(OC)c3)c2c1` , system UACC-257 melanoma: what TGI was measured?
// result 4.64

Could I get TGI for every one of these entries?
1. Cc1cc2nc(CS)[nH]c2cc1C
2. O=C1Nc2ccccc2/C1=C/C(=N/c1nnc(-c2ccc(Cl)cc2)s1)c1ccccc1
3. CC1OC(OC2C(O)COC(OC3C(C)OC(OC4C(OC(=O)[C@]56CCC(C)(C)C[C@@H]5C5=CCC7[C@@]8(C)C[C@H](O)[C@H](OC9OC(CO)C(O)C(O)C9O)[C@@](C)(CO)[C@@H]8CC[C@@]7(C)[C@]5(C)CC6)OCC(O)C4O)C(O)C3OC3OCC(O)C(O)C3O)C2O)C(O)C(O)C1O (stereo partly drawn)

// result
1. 54
2. 8.64
3. 31.7

----------
Exercise: for every item that follows, state its recorded TGI.
# System: EKVX NSCLC
# Assay Procedure: NCI tumour cell line growth inhibition, 48 h

Could I get TGI for every one of these entries?
1. COc1nc(=O)cc(N)n1C1OC(CO)C(O)C1O (centres undefined)
2. COc1ccc(SS(=O)(=O)c2ccc(OC)cc2)cc1
3. Cc1n[nH]c(=O)n1/N=C/c1cccc(Cl)c1
4. COC1CC(OC2C(C)OC(OC3C(C)OC(OC4CCC5(C)C(=CCC6(O)C5CC(OC(=O)c5ccc(O)cc5)C5(C)C(O)(C(C)=O)CCC65O)C4)CC3OC)CC2OC)OC(C)C1O (centres undefined) (tested in a mixture with another compound)
5. COc1ccccc1C=NC12CC3CC(CC(C3)C1)C2
6. C[C@]12OC(=O)[C@]3(O)CC[C@H]4[C@@H](C[C@@H](O)[C@@]5(Cl)CC=CC(=O)[C@]45C)[C@]45OCC6C(=O)O[C@@H]1C[C@@]6(C)[C@H](C4=O)[C@@]32O5 (some centres undefined)

// result
["> 100 µM", "71.6 µM", "> 100 µM", "> 100 µM", "> 100 µM", "4.91 µM"]

Could I get TGI for every one of these entries?
1. Cc1cccc(-n2c(C)nc3ccc(NC(=S)Nc4ccccc4)cc3c2=O)c1
2. COc1ccc(/C=C/c2cc(OC)cc(OC)c2)cc1

// result
> 100 µM
> 100 µM

// query Which TGI reading was recorded for the compound `CCCC(=O)OCC(COC(=O)CCC)OC(=O)CCC` ?
// result > 100 µM

----------
# Tested on: DU-145 prostate
# Assay Procedure: NCI tumour cell line growth inhibition, 48 h
Parameter: TGI (µM)
Answers are plain numbers, in µM.

# count of solved cases: 5
// query Which TGI reading was recorded for the molecule CCOc1c(OC)cc(C2c3cc4c(c(OCC)c3CC3COC(=O)C32)OCO4)cc1OC (centres undefined) ?
// result 12.1

// query Which TGI reading was recorded for the molecule CCN(CC)c1ccc(/C=C/C2=NN(c3cccc(S(=O)(=O)O)c3)C3(C2)SCC(=O)N3c2nc3ccccc3s2)cc1 (centres undefined) ?
// result 75.7

// query Which TGI reading was recorded for the molecule `COc1ccccc1NC(=O)c1ccc(NC2=C(Cl)C(=O)N(Cc3ccccc3)C2=O)cc1` ?
// result 28

// query Which TGI reading was recorded for the molecule `Cc1cc(Cl)ccc1Nc1nc(C(F)(F)F)ccc1C(=O)N/N=C/c1cccc(O)c1` ?
// result 15.2

// query Which TGI reading was recorded for the molecule `O=C1/C(=C/c2ccc(Cl)cc2Cl)CN(S(=O)(=O)c2ccccc2)C/C1=C\c1ccc(Cl)cc1Cl` ?
// result 19.7

Let's switch to this molecule now.
// query Which TGI reading was recorded for the molecule `Oc1ccc(-c2nc3ccc(F)cc3s2)cc1` ?
// result 30.3

----------
Exercise: for every item that follows, state its recorded GI50.
# Tested on: SK-MEL-2 melanoma

# count of solved cases: 8
// query Which GI50 reading was recorded for the molecule `CC(C)c1ccc(COCc2cc(CN3CCCC3)c(O)c3ncccc23)cc1` ?
// result 1.61 µM

// query Which GI50 reading was recorded for the molecule `COc1ccccc1NC(=O)c1ccc(NC2=C(Cl)C(=O)N(Cc3ccccc3)C2=O)cc1` ?
// result 11.2 µM

// query Which GI50 reading was recorded for the molecule `C=C1C(=O)O[C@H]2[C@H]1CC/C(COC(=O)NCc1ccc(Cn3c(=O)sn(CCCC)c3=O)cc1)=C\CC[C@@]1(C)O[C@@H]21` ?
// result 4.52 µM

// query Which GI50 reading was recorded for the molecule `N[C@@H]1CCCC[C@@H]1N.O=P([O-])([O-])CNCP(=O)([O-])[O-].[Pt+2]` ?
// result > 100 µM

// query Which GI50 reading was recorded for the molecule `COc1cc(Cl)cc(-c2nn(-c3cccc(NC(=O)c4cccc(C(F)(F)F)c4)c3)cc2-c2ccncc2)c1` ?
// result 6.78 µM

// query Which GI50 reading was recorded for the molecule `CN(C)c1ccc2nc3ccc(=[N+](C)C)c([N+](=O)[O-])c-3sc2c1` ?
// result 4.54 µM

// query Which GI50 reading was recorded for the molecule COc1cccc(C2CC(=O)c3cc(N4CCCC4)ccc3N2)c1 (centres undefined) ?
// result 64.5 µM

// query Which GI50 reading was recorded for the molecule `Cc1cc2nc(CS)[nH]c2cc1C` ?
// result 15.7 µM

Continuing:
// query Which GI50 reading was recorded for the molecule `COc1ccc2c(c1)C(=Nc1ccc(F)c(F)c1F)c1c-2c(Nc2ccc(F)c(F)c2F)nc2ccccc12` ?
// result 23.8 µM
